Below is a list of entries, each paired with its recorded Kd value.
measurement.target: T1, human GPC3 (human, UniProt P51654 25-563)
T1 construct: range 25-563; soluble analyte; also called soluble human GPC3; glypican 3
T1 sequence (P51654 25-563 limits assumed): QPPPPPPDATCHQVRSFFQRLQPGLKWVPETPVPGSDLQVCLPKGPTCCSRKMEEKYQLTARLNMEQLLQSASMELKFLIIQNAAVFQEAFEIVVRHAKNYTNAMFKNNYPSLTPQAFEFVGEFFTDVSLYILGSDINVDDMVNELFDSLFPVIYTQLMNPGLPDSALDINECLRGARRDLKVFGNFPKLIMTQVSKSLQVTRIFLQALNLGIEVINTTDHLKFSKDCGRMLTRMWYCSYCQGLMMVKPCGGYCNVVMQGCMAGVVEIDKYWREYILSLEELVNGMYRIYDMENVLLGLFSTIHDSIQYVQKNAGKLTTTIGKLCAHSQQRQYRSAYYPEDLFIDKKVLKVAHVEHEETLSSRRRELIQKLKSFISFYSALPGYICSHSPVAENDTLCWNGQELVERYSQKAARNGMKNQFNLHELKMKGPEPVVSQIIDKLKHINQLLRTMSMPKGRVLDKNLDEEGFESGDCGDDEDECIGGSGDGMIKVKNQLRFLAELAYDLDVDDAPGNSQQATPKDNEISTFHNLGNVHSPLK
assay.protocol: SPR
Return type: number; implicit unit nM.

Some binders with known Kd results, for comparison:
[[record]]
binder = "H0610-G1dh/none-Hi-Kn010G3/L0032-k0 (antibody, V domains shown, one-arm) VH: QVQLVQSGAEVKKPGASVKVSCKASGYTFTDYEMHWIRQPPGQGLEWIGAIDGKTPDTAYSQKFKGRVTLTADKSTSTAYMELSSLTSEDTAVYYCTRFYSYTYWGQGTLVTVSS VL: DIVMTQSPLSLPVTPGEPASISCRSSQSLVRSNRNTYLHWYQQKPGQAPRLLIYKVSNRFSGVPDRFSGSGSGTDFTLKISRVEAEDVGVYYCGQGTQVPYTFGQGTKLEIK"
observed = 3.72

[[record]]
binder = "GCH054-G1dh/none-Hi-Kn010G3/L0203-k0 (antibody, V domains shown, one-arm) VH: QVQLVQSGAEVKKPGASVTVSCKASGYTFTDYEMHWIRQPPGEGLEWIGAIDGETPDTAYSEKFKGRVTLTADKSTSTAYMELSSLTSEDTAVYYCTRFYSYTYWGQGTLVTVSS VL: DIVMTQSPLSLPVTPGEPASISCRSSQSPVHSNRNTYIHWYQQKPGQAPRLLIYKVSNRFSGVPDRFSGSGSGTDFTLKISRVEAEDVGVYYCGQGTQVPYTFGQGTKLEIKR"
observed = 2.48

[[record]]
binder = "H0610-G1dh/none-Hi-Kn010G3/L0002-k0 (antibody, V domains shown, one-arm) VH: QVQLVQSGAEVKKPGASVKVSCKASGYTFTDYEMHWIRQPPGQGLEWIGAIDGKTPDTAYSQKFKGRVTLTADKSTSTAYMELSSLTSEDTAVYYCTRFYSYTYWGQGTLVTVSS VL: DIVMTQSPLSLPVTPGEPASISCRASQSLVHSNRNTYLHWYQQKPGQAPRLLIYKVSNRFSGVPDRFSGSGSGTDFTLKISRVEAEDVGVYYCGQGTQVPYTFGQGTKLEIK"
observed = 4.43

[[record]]
binder = "H0610-G1dh/none-Hi-Kn010G3/L0123-k0 (antibody, V domains shown, one-arm) VH: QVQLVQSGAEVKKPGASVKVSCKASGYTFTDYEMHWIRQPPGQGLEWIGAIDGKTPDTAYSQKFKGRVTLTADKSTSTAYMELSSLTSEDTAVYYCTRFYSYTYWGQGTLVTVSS VL: DIVMTQSPLSLPVTPGEPASISCRSSQSLVHSNRNTYLHWYQQKPGQAPRLLIYKVSNRKSGVPDRFSGSGSGTDFTLKISRVEAEDVGVYYCGQGTQVPYTFGQGTKLEIK"
observed = 5.08

[[record]]
binder = "H0610-G1dh/none-Hi-Kn010G3/L0041-k0 (antibody, V domains shown, one-arm) VH: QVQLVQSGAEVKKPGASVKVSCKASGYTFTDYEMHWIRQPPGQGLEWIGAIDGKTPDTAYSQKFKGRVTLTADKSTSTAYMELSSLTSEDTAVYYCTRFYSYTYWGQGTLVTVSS VL: DIVMTQSPLSLPVTPGEPASISCRSSQSLVHLNRNTYLHWYQQKPGQAPRLLIYKVSNRFSGVPDRFSGSGSGTDFTLKISRVEAEDVGVYYCGQGTQVPYTFGQGTKLEIK"
observed = 4.85


Now let's try a different one.
GCH056-G1dh/none-Hi-Kn010G3/L0201-k0 (antibody, V domains shown, one-arm) VH: QVQLVQSGAEVKKPGASVTVSCKASGYTFTDYEMHWIRQPPGEGLEWIGAIDGETPDTAYSQKFEGRVTLTADKSTSTAYMELSSLTSEDTAVYYCTRFYSYTYWGQGTLVTVSS VL: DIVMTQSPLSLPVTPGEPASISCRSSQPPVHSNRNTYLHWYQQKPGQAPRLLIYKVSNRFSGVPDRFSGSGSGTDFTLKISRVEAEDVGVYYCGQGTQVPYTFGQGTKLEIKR has a reported Kd of 1.16

The reported measurements were obtained from patent US20250066503A1.
